System: TTR
experiment_notes: TTR editing in HepG2 cells transfected with Spy Cas9 mRNA and dgRNAs (Table 6)
Assay type: cell-based, human
experimental_setup: HepG2 cells co-transfected with Spy Cas9 mRNA (SEQ ID NO:2) and dgRNAs
Protocol: HepG2 cell line. The human hepatocellular carcinoma cell line HepG2 (American Type Culture Collection, Cat. HB-8065) was cultured in DMEM media supplemented with 10% fetal bovine serum. Cells were counted and plated on Bio-coat collagen I coated 96-well plates (ThermoFisher, Cat. 877272) at a density of 10,000 cells/well in a 96-well plate 24 hours prior to transfection. Cells were transfected with Lipofectamine 2000 (ThermoFisher, Cat. 11668019) per the manufacturer's protocol. […]
Could you please classify the records by Avg % Edit using these ranges: bottom (below 10%), middle (10% to below 40%), top (40% or more)

- sequence_record: "CUCUGCAUGCUCAUGGAAUG (tested as dual guide RNA, chemistry not given here) [CR003369]"
  assigned_class: "middle"
- sequence_record: "UCACAGAAACACUCACCGUA (tested as dual guide RNA, chemistry not given here) [CR005300]"
  assigned_class: "top"
- sequence_record: "AUAGGAGUAGGGGCUCAGCA (tested as dual guide RNA, chemistry not given here) [CR003383]"
  assigned_class: "bottom"
- sequence_record: "UGAAUCCAAGUGUCCUCUGA (tested as dual guide RNA, chemistry not given here) [CR005303]"
  assigned_class: "middle"
- sequence_record: "GCUGCAUGGGCUCACAACUG (tested as dual guide RNA, chemistry not given here) [CR003361]"
  assigned_class: "middle"
- sequence_record: "CUUCUCUACACCCAGGGCAC (tested as dual guide RNA, chemistry not given here) [CR003342]"
  assigned_class: "middle"
- sequence_record: "UGGACUGGUAUUUGUGUCUG (tested as dual guide RNA, chemistry not given here) [CR003340]"
  assigned_class: "middle"
- sequence_record: "AAAGGCUGCUGAUGACACCU (tested as dual guide RNA, chemistry not given here) [CR003353]"
  assigned_class: "top"
- sequence_record: "CUGCUCCUCCUCUGCCUUGC (tested as dual guide RNA, chemistry not given here) [CR003335]"
  assigned_class: "middle"
- sequence_record: "CAGAGGACACUUGGAUUCAC (tested as dual guide RNA, chemistry not given here) [CR003343]"
  assigned_class: "top"
- sequence_record: "AAAUCUUACUGGAAGGCACU (tested as dual guide RNA, chemistry not given here) [CR005306]"
  assigned_class: "middle"
- sequence_record: "GCCGUGGUGGAAUAGGAGUA (tested as dual guide RNA, chemistry not given here) [CR003387]"
  assigned_class: "bottom"
- sequence_record: "GCAUGGGCUCACAACUGAGG (tested as dual guide RNA, chemistry not given here) [CR003362]"
  assigned_class: "middle"
- sequence_record: "AAUAGGAGUAGGGGCUCAGC (tested as dual guide RNA, chemistry not given here) [CR003384]"
  assigned_class: "bottom"

---

// values below are reported # Sites (off-target integration sites detected)
Tested on: off-target genomic sites
experiment_notes: Off-target oligo insertion based assay in HEK293_Cas9 cells, dgRNAs and sgRNAs (Tables 23, 24)
Type: cell-based, human
experimental_setup: Table 23; TTR dgRNAs in HekCas9 cells, oligo insertion based assay
parameter: # Sites (off-target integration sites detected)

- sequence_record: "AGGCAGUCCUGCCAUCAAUG (tested as dual guide RNA, chemistry not given here) [CR003348]"
  test_result: 3
- sequence_record: "CCGUGGUGGAAUAGGAGUAG (tested as dual guide RNA, chemistry not given here) [CR003386]"
  test_result: 1
- sequence_record: "CCCAGAGGCAAAUGGCUCCC (tested as dual guide RNA, chemistry not given here) [CR003355]"
  test_result: 1
- sequence_record: "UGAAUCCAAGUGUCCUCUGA (tested as dual guide RNA, chemistry not given here) [CR005303]"
  test_result: 1
- sequence_record: "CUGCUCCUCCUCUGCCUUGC (tested as dual guide RNA, chemistry not given here) [CR003335]"
  test_result: 0
- sequence_record: "GUGAGUCUGGAGAGCUGCAU (tested as dual guide RNA, chemistry not given here) [CR003360]"
  test_result: 0
- sequence_record: "GCAACUUACCCAGAGGCAAA (tested as dual guide RNA, chemistry not given here) [CR003356]"
  test_result: 4
- sequence_record: "AAAGUUCUAGAUGCUGUCCG (tested as dual guide RNA, chemistry not given here) [CR003346]"
  test_result: 0
- sequence_record: "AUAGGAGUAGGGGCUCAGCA (tested as dual guide RNA, chemistry not given here) [CR003383]"
  test_result: 1
- sequence_record: "CAUUGAUGGCAGGACUGCCU (tested as dual guide RNA, chemistry not given here) [CR003347]"
  test_result: 1
- sequence_record: "GCAGGGCGGCAAUGGUGUAG (tested as dual guide RNA, chemistry not given here) [CR003380]"
  test_result: 0
- sequence_record: "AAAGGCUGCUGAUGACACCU (tested as dual guide RNA, chemistry not given here) [CR003353]"
  test_result: 2
- sequence_record: "GGAGUAGGGGCUCAGCAGGG (tested as dual guide RNA, chemistry not given here) [CR003382]"
  test_result: 34

---

Tested on: TTR
experiment_notes: TTR editing in primary human hepatocytes electroporated with Spy Cas9 protein loaded with dgRNAs (Table 7)
Type: cell-based
experimental_setup: dgRNA electroporated with Spy Cas9 protein (RNP)
Method: Primary liver hepatocytes. Primary human liver hepatocytes (PHH) and primary cynomolgus liver hepatocytes (PCH) (Gibco) were cultured per the manufacturer's protocol (Invitrogen, protocol 11.28.2012). […] Cells were counted and plated on Bio-coat collagen I coated 96-well plates (ThermoFisher, Cat. 877272) at a density of 33,000 cells/well for human or 60,000 cells/well for cyno (or 65,000 cells/well when assaying effects on TTR protein, described further below). […]
parameter: Avg % Edit (%)

- sequence_record: "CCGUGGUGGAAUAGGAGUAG (tested as dual guide RNA, chemistry not given here) [CR003386]"
  parameter: "Avg % Edit"
  unit_label: "%"
  test_result: 4.90
- sequence_record: "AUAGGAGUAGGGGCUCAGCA (tested as dual guide RNA, chemistry not given here) [CR003383]"
  parameter: "Avg % Edit"
  unit_label: "%"
  test_result: 8.57
- sequence_record: "CUGAGGAGGAAUUUGUAGAA (tested as dual guide RNA, chemistry not given here) [CR003364]"
  parameter: "Avg % Edit"
  unit_label: "%"
  test_result: 23.30
- sequence_record: "ACGUGUCUUCUCUACACCCA (tested as dual guide RNA, chemistry not given here) [CR005302]"
  parameter: "Avg % Edit"
  unit_label: "%"
  test_result: 61.10
- sequence_record: "AUUGGUGACGACAGCCGUGG (tested as dual guide RNA, chemistry not given here) [CR003389]"
  parameter: "Avg % Edit"
  unit_label: "%"
  test_result: 27.67
- sequence_record: "AUGCAGCUCUCCAGACUCAC (tested as dual guide RNA, chemistry not given here) [CR003358]"
  parameter: "Avg % Edit"
  unit_label: "%"
  test_result: 5.70
- sequence_record: "GGGAUUGGUGACGACAGCCG (tested as dual guide RNA, chemistry not given here) [CR003390]"
  parameter: "Avg % Edit"
  unit_label: "%"
  test_result: 15.97
